Source: patent US20140112930A1

# assayed-target: T1, Monkey Ang-2FD-hFc (monkey (Macca fascicularis))
# T1 construct: also called dimeric monkey Ang-2FD
# T1 sequence (chain, as listed by the source limits assumed): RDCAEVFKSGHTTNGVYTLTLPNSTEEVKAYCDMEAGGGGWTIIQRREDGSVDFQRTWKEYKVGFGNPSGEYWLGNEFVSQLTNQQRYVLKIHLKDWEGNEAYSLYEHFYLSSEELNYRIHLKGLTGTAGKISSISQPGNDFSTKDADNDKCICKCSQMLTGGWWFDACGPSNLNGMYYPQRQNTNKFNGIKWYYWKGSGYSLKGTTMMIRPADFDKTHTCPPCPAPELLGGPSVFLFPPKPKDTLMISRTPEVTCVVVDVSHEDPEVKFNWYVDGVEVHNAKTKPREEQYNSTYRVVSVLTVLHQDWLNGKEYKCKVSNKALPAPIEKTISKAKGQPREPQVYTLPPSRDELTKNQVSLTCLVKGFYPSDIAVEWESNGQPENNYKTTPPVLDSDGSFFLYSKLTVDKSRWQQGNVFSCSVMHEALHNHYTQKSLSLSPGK
# experimental-protocol: blocking ELISA, 16.67 nM antibody, Ang-2FD-hFc to coated hTie-2-mFc
# Experimental: The plate was then blocked with PBS (Irvine Scientific, Santa Ana, Calif.) containing 0.5% BSA (Sigma-Aldrich Corp., St. Louis, Mo.) for one hour at room temperature. […] Detection of Ang-2FD-hFc bound to hTie-2-mFc protein was determined with Horse-Radish Peroxidase (HRP) conjugated to a-human IgG antibody (Jackson Immuno Research Lab, West Grove, Pa.) and developed by standard colorimetric response using tetramethylbenzidine (TMB) substrate (BD Biosciences, San Jose, Calif.). […]
We begin with a simple list: items and their reported Percent Blocking of Ang-2FD Binding to Tie-2.
Dear colleague, please return just the value in %, with no unit written.

Examples with answers:
H1H690P (antibody, human IgG1, V domains shown, Human IgG1) VH: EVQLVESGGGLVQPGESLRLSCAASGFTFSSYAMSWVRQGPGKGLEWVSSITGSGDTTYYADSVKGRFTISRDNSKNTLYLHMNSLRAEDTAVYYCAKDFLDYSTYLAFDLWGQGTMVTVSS VL: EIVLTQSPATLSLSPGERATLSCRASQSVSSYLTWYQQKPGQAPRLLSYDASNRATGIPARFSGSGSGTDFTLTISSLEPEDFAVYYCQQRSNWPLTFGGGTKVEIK :: 99.6
H1H706P (antibody, human IgG1, V domains shown, Human IgG1) VH: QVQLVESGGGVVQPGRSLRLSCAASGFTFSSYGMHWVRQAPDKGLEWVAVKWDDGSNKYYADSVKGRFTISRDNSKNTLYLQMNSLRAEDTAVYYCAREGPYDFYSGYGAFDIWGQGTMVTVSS VL: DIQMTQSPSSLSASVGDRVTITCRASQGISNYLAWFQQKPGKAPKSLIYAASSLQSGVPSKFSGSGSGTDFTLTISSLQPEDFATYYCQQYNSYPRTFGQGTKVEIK :: 99.8
H1H724N (antibody, V domains shown) VH: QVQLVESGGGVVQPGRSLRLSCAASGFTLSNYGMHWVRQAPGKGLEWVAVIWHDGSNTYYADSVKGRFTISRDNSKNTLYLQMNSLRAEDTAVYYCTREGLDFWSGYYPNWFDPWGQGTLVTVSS VL: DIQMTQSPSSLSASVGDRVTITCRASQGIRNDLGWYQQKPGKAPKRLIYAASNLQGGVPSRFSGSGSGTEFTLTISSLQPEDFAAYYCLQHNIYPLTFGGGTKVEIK :: 96.6

Data request: # return recorded Percent Blocking of Ang-2FD Binding to Tie-2 for input H1H744N (antibody, V domains shown) VH: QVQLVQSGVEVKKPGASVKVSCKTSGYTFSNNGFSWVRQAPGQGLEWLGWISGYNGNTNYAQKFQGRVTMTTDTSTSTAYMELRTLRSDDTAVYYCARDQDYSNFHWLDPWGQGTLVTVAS VL: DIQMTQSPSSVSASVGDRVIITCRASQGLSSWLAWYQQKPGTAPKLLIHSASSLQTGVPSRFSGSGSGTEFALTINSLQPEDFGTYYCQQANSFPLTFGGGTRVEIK
Data returned: 96.2

Data request: Answer with the recorded Percent Blocking of Ang-2FD Binding to Tie-2 of H1H691P (antibody, human IgG1, V domains shown, Human IgG1) VH: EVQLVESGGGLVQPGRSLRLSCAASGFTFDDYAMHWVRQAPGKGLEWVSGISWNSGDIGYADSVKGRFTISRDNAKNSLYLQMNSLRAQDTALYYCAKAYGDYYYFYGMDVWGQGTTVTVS VL: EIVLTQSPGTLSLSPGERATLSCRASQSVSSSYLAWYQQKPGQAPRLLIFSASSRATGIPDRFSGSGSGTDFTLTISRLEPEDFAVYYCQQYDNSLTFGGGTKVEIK only.
Data returned: 99.8
